Reference source: patent US6506580B1

Biological target: receptor 5-HT4(b) (Homo sapiens, UniProt Q13639)
Construct: The entire coding region of the cDNAs of 5-HT4(a), 5-HT4(b), 5-HT4(c) and 5-T4(d) was subcloned; expressed in transfected cells; host or cells: COS-7 cells, transient, pRC/CMV vector; cDNA amplified from human brain and ileum RNA
Sequence (Q13639 whole entry): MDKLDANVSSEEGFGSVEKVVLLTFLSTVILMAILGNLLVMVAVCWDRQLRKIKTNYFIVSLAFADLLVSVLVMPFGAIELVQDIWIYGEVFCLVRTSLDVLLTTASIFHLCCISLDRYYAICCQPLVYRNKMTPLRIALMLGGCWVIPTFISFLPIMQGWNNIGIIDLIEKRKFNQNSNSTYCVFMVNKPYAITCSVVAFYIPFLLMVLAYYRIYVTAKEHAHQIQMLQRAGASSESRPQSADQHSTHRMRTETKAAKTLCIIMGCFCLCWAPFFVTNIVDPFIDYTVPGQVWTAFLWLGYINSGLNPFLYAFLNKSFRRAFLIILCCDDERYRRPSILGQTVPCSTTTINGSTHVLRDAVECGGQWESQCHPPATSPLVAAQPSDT
Assay: [3H]GR113808 radioligand binding, membranes of transiently transfected COS-7 cells
Conditions: 5-HT4(b), COS-7 membranes, [3H]GR113808 at 50% of Kd; read-out: Ki, competition for [3H]GR113808 binding
Below, each entry is listed alongside its reported pKi.
A value of pKi is the negative decimal logarithm of a concentration given in moles per litre.

{"molecule": "Cn1cc(C(=O)OCC2CCN(CCNS(C)(=O)=O)CC2)c2ccccc21 [GR113808]", "pKi": 9.28}

Moving on to the next molecule.
Value of pKi reported for the molecule COc1ccc2[nH]cc(CCN)c2c1 [5-MeOT, 5-methoxytryptamine] is 5.61
